- targetEntity: T1, Cyno His-GDF15: HIS-tagged cyno GDF15 (cynomolgus, UniProt G7PWZ3 197-308, limits assumed)
- T1 construct: not shown: His tag
- T1 sequence (looked up): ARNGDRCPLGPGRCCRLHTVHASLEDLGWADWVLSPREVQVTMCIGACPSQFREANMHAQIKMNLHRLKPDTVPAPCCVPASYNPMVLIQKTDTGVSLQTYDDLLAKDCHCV
- method: Biacore SPR, IgG captured via anti-human Fc, GDF15 in flow
- Procedure: Biacore assay is based on surface plasmon resonance (SPR) and were used to determine the binding affinity of antibodies to GDF15. Anti-human Fc capture antibody was immobilized at 0.5 μg/ml on CMS chip in all four flow cells to achieve 8000 to 12,000 resonance units (RU) on the surface. Anti-hGDF15 antibodies were captured at flow rate […], at 0.25 to 0.5 μg/ml on the chip to get about 30 RU in flow cells 2, 3 and 4. […]
// reported koff for each item listed
quantityKind: koff (s⁻¹)

1. ABGDF15-C (antibody, human IgG1, lambda, V domains shown, captured through anti-human Fc in the Biacore assay) VH: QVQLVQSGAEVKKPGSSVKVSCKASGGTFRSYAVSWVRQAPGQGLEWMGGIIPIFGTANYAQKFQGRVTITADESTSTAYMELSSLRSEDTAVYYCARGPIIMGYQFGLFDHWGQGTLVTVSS VL: SYELTQPPSVSVSPGQTASITCSGDNIGSHIVSWYQQKPGQSPVLVIYDKSNRPSGIPERFSGSNSGNTATLTISGTQAMDEADYYCQTWDSIGSVVFGGGTKLTVLG
0.000322
2. ABGDF15-D (antibody, human IgG1, lambda, V domains shown, captured through anti-human Fc in the Biacore assay) VH: EVQLVQSGAEVKKPGESLKISCKGSGYSFTSYWIGWVRQMPGKGLEWMGVIDPDGSYTIYSPSFQGQVTISADKSISTAYLQWSSLKASDTAMYYCARYGRYGTYFDYWGQGTLVTVSS VL: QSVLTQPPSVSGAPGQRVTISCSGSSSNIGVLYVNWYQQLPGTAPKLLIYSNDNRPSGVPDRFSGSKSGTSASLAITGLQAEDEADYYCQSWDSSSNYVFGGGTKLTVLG
0.000236
3. ABGDF15-E (antibody, human IgG1, lambda, V domains shown, captured through anti-human Fc in the Biacore assay) VH: EVQLVQSGAEVKKPGESLKISCKGSGYSFTSYWIGWVRQMPGKGLEWMGVIDPGGSYTIYSPSFQGQVTISADKSISTAYLQWSSLKASDTAMYYCARYGRYGTYFDYWGQGTLVTVSS VL: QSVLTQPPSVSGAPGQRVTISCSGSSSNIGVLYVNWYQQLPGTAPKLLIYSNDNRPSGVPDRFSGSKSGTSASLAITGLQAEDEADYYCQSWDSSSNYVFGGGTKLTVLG
0.00038
4. ABGDF15-G (antibody, human IgG1, kappa, V domains shown, captured through anti-human Fc in the Biacore assay) VH: QVQLVQSGAEVKKPGSSVKVSCKASGGTFSSHYINWVRQAPGQGLEWMGGIIPAFGGANYAQKFQGRVTITADESTSTAYMELSSLRSEDTAVYYCARFGSVYVSRYSSYYHMDVWGQGTLVTVSS VL: DIQMTQSPSSLSASVGDRVTITCRASQTIYRSLAWYQQKPGKAPKLLIYGASILQSGVPSRFSGSGSGTDFTLTISSLQPEDFATYYCLQRYTSPFTFGQGTKVEIKR
0.000694
5. ABGDF15-B (antibody, human IgG1, lambda, V domains shown, captured through anti-human Fc in the Biacore assay) VH: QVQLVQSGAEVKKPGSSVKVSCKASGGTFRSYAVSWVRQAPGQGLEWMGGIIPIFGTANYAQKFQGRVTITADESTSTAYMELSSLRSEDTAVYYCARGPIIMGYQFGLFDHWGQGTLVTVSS VL: SYELTQPLSVSVALGQTARITCSGDNIGSHIVSWYQQKPGQAPVLVIYDKSNRPSGIPERFSGSNSGNTATLTISRAQAGDEADYYCQTWDSIGSVVFGGGTKLTVLG
0.000461
6. ABGDF15-A (antibody, human IgG1, kappa, V domains shown, captured through anti-human Fc in the Biacore assay) VH: EVQLVQSGAEVKKPGESLKISCKGSGYSFTDYWISWVRQMPGKGLEWMGIIDPSGSYTIYSPSFQGQVTISADKSISTAYLQWSSLKASDTAMYYCARVSYYGGYFDIWGQGTLVTVSS VL: DIQMTQSPSSLSASVGDRVTITCRASQSISNNLNWYQQKPGKAPKLLIYAASNLQSGVPSRFSGSGSGTDFTLTISSLQPEDFATYYCFQLDHSPFTFGQGTKVEIKR
0.000278
7. ABGDF15-F (antibody, human IgG1, lambda, V domains shown, captured through anti-human Fc in the Biacore assay) VH: EVQLVQSGAEVKKPGESLKISCKGSGYSFTSYWIGWVRQMPGKGLEWMGVIDPSGSYTIYSPSFQGQVTISADKSISTAYLQWSSLKASDTAMYYCARYGRYGTYFDYWGQGTLVTVSS VL: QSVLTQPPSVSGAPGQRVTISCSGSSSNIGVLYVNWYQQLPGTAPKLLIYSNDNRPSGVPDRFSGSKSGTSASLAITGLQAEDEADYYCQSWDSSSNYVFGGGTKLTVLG
0.00044
